Source of measurements: paper PMC11597879

List of IC50 tested on Topo-I (Homo sapiens, UniProt P11387).
Sequence (P11387 whole entry): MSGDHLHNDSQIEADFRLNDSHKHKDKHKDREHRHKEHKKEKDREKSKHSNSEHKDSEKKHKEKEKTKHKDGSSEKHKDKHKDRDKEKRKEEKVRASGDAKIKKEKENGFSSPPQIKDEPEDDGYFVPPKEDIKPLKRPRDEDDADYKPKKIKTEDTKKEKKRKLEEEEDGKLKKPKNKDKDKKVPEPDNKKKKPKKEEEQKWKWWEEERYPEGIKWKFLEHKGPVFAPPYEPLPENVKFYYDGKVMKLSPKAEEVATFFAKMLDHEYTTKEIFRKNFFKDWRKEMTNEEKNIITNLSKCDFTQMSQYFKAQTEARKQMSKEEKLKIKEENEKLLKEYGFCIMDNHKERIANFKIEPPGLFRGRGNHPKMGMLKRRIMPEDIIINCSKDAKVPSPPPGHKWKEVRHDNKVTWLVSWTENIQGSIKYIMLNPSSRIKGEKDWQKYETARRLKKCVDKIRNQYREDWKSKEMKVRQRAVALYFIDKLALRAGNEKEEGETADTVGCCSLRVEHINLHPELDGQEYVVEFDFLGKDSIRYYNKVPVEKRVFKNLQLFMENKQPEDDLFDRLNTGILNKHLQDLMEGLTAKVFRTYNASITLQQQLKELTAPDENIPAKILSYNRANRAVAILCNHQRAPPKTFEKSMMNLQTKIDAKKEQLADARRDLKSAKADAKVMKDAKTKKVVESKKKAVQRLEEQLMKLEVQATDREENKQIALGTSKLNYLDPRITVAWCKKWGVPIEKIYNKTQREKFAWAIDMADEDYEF

Provide only the value of recorded IC50 for "O=[N+]([O-])c1ccccc1S(=O)(=O)Nc1ccc(Nc2c3ccccc3nc3ccccc23)cc1"
15 µM

Provide only the value of recorded IC50 for N.N.[Cl][Pt][Cl] [Cisplatin, reference compound]
5.71 µM

Provide only the value of recorded IC50 for "Cc1ccc(S(=O)(=O)Nc2ccc(Cc3ccc(Nc4c5ccccc5nc5ccccc45)cc3)cc2)cc1"
82.5 µM

---

# Test system: THLE-2 cell line
# measurementDescription: MTT cytotoxicity against normal cell line THLE-2
# Type: cell-based, human
# conditionLabel: Homo sapiens, THLE-2, 48 h, normal liver epithelial cells
reportedProperty: pIC50
Please keep in mind that pIC50 is minus log10 of the molar concentration; only the number is needed.

Cc1ccc(S(=O)(=O)Nc2ccc(Nc3c4ccccc4nc4ccccc34)cc2)cc1 : 3.98

Next, consider the following compound.
Provide only the value of recorded pIC50 for "CC(=O)Nc1ccc(S(=O)(=O)Nc2ccc(Cc3ccc(Nc4c5ccccc5nc5ccccc45)cc3)cc2)cc1"
4.26

---

List of pIC50 tested on human Topo-II (Homo sapiens).
Please keep in mind that pIC50 is minus log10 of the molar concentration; only the number is needed.

O=[N+]([O-])c1ccccc1S(=O)(=O)Nc1ccc(Nc2c3ccccc3nc3ccccc23)cc1 [Compound 8a] : 4.96
N.N.[Cl][Pt][Cl] [Cisplatin, reference compound] : 4.95

Next, consider the following compound.
Please look at S=C(Nc1ccccc1)Nc1ccc(Cc2ccc(Nc3c4ccccc4nc4ccccc34)cc2)cc1 [Compound 6a] and tell me its recorded pIC50 on human Topo-II (Homo sapiens).
4.00

---

# target: human Topo-II (Homo sapiens, UniProt P11388)
# Sequence (P11388 whole entry): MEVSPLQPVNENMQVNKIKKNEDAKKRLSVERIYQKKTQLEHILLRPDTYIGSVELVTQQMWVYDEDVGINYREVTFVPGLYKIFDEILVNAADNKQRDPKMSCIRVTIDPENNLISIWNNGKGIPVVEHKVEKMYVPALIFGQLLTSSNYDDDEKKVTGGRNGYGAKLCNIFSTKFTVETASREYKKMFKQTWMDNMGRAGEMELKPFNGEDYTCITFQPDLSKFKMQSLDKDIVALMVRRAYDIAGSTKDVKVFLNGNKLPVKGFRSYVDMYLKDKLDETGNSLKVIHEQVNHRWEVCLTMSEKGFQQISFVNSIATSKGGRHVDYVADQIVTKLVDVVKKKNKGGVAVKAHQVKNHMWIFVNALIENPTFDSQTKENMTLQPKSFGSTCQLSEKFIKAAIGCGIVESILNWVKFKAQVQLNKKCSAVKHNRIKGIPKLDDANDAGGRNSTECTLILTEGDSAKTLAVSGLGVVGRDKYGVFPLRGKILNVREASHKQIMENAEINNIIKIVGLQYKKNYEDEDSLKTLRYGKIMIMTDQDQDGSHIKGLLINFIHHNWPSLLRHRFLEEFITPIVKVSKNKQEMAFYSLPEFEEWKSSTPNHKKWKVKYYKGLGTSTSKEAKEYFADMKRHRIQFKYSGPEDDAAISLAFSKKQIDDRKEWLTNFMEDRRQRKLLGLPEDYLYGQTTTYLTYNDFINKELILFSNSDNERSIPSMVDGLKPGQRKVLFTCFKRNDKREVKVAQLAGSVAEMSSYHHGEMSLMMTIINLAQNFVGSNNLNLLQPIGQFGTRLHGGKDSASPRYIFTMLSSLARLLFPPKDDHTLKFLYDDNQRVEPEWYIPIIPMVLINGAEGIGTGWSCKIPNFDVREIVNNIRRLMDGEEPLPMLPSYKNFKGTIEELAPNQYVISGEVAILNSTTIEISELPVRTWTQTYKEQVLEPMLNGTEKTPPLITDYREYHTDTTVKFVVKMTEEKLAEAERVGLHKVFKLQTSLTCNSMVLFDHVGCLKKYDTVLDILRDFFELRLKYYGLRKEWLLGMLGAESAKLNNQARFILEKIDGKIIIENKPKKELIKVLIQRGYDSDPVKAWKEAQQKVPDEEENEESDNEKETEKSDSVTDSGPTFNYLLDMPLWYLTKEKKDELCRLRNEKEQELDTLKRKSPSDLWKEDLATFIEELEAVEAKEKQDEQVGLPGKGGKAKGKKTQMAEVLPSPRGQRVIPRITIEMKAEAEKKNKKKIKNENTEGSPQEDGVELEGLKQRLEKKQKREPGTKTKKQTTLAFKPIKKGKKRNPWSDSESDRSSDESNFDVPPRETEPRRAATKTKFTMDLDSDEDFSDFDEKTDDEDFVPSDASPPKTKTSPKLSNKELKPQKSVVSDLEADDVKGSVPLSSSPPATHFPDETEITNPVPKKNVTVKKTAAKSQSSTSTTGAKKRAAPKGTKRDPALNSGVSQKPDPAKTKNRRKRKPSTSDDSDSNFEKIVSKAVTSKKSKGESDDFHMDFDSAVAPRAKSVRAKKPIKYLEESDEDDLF
Measured pIC50 of individual entries
Please keep in mind that pIC50 is minus log10 of the molar concentration; only the number is needed.

See these solved cases before continuing.
O=S(=O)(Nc1ccc(Nc2c3ccccc3nc3ccccc23)cc1)c1ccc(N=Nc2ccccc2)cc1 [Compound 8c] : 4.66
S=C(Nc1ccccc1)Nc1ccc(Nc2c3ccccc3nc3ccccc23)cc1 [Compound 6b] : 4.61

Please look at CC(C)c1cc(C(C)C)c(S(=O)(=O)Nc2ccc(Nc3c4ccccc4nc4ccccc34)cc2)c(C(C)C)c1 [Compound 8d] and tell me its recorded pIC50 on human Topo-II (Homo sapiens, UniProt P11388).
4.49
